biological target: NMDA receptor (NR1 + NR2 subunits) (Rattus norvegicus, UniProt P35439+Q00960); assay: Two electrode voltage clamp recording from Xenopus laevis oocytes (pH dependence of NMDA antagonism); format: cell-based; conditions: pH 7.6; Table 20; read-out: IC50 at pH 7.6
Sequence (Q00960 27-1482, other chains not shown): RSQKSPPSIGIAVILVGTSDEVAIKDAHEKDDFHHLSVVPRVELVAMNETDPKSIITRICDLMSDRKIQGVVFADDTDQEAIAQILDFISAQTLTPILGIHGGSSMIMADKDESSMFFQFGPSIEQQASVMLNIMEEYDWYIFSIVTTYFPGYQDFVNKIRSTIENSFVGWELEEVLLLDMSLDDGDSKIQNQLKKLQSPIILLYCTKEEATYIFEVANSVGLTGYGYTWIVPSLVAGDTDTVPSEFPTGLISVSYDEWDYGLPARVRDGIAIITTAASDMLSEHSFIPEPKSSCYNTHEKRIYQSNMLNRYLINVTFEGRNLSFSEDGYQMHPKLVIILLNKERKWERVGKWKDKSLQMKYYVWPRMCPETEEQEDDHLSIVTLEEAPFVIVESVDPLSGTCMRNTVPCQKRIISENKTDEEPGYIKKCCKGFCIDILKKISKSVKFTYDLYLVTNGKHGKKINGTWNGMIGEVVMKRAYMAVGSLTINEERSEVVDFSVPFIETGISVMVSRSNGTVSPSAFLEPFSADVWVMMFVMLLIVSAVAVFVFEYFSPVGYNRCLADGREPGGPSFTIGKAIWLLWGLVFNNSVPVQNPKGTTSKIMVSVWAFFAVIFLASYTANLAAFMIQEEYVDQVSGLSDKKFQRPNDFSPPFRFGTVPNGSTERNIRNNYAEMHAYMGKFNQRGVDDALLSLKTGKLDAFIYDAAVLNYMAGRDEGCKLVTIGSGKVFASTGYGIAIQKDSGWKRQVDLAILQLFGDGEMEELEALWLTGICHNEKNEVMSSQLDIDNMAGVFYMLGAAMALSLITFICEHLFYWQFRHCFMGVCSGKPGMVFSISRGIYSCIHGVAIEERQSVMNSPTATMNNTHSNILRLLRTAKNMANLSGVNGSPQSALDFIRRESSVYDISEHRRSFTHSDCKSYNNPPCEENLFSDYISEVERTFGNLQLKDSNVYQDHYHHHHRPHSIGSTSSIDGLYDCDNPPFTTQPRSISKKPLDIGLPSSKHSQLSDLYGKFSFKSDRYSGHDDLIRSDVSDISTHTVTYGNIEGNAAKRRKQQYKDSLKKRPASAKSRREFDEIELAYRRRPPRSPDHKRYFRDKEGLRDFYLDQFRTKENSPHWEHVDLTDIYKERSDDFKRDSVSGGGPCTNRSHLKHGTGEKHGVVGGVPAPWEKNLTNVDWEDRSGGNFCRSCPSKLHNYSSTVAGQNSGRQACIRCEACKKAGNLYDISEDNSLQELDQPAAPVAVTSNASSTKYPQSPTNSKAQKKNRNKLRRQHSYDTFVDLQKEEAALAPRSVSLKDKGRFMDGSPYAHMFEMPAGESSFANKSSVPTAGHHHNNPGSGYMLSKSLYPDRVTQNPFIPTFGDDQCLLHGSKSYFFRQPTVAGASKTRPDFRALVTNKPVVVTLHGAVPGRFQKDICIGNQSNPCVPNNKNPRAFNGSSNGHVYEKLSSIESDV
pIC50: −log10 of the molar value.
Rule: pIC50 under 6 gives false (0), otherwise true (1).

| Compound | Discrete label |
| --- | --- |
| CCNC(=O)Nc1ccc(OCCCN2CCN(c3ccc(F)cc3)CC2)cc1 | false (0) |

# check: pIC50 of NC(=O)Nc1ccc(OC[C@@H](O)CN2CCN(c3ccc(Cl)cc3)CC2)cc1 [drawing 755] is greater than or equal to 6 true (1)

# check: pIC50 of NC(=O)Nc1ccc(OCCCN2CCN(c3ccc(F)cc3)CC2)cc1 is greater than or equal to 6 true (1)

# check: pIC50 of COC(=O)Nc1ccc(OCCCN2CCN(c3ccc(F)cc3)CC2)cc1 is greater than or equal to 6 false (0)

# check: pIC50 of NC(=O)Nc1ccc(OC[C@H](O)CN2CCN(c3ccc(Cl)cc3)CC2)cc1 is greater than or equal to 6 true (1)

# check: pIC50 of C=C(COc1ccc(NC(N)=O)cc1)CN1CCN(c2ccc(F)c(F)c2)CC1 is greater than or equal to 6 false (0)

---

biological target: rat alpha-1 adrenergic receptor in rat brain membranes; test: alpha-1 adrenergic receptor binding by displacement of 3[H]-prazosin; conditions: 3[H]-prazosin displacement, read-out: α1 IC50
Recorded endpoint: IC50

| Molecule | Experimental target | Assay value |
| --- | --- | --- |
| O=C1Cc2cc(OC[C@@H](O)CN3CCN(c4ccc(Cl)cc4)CC3)ccc2N1 | rat alpha-1 adrenergic receptor in rat brain membranes | ~100 nM |
| O=C1CCc2cc(OC[C@@H](O)CN3CCN(c4ccc(Cl)cc4)CC3)ccc2N1 | rat alpha-1 adrenergic receptor in rat brain membranes | ~100 nM |
| O[C@H](COc1ccc2[nH]ncc2c1)CN1CCN(c2ccc(Cl)cc2)CC1 | rat alpha-1 adrenergic receptor in rat brain membranes | ~300 nM |
| O=c1[nH]c2ccc(OC[C@@H](O)CN3CCN(c4ccc(Cl)cc4)CC3)cc2[nH]1 [drawing 781] | rat alpha-1 adrenergic receptor in rat brain membranes | ~350 nM |
| O[C@H](COc1ccc2[nH]c(=S)[nH]c2c1)CN1CCN(c2ccc(Cl)cc2)CC1 | rat alpha-1 adrenergic receptor in rat brain membranes | ~150 nM |

Kindly review the next molecule as well.
I looked up O=c1ccc2cc(OC[C@@H](O)CN3CCN(c4ccc(Cl)cc4)CC3)ccc2[nH]1 and its IC50 for rat alpha-1 adrenergic receptor in rat brain membranes was ~350 nM

---

Item-by-item account of pIC50
target: NMDA receptor (NR1 + NR2 subunits) (Rattus norvegicus, UniProt P35439+Q00960); test: Two electrode voltage clamp recording from Xenopus laevis oocytes (pH dependence of NMDA antagonism); format: cell-based; conditions: pH 6.9; Table 19; read-out: IC50 at pH 6.9
Hey, just a heads up that pIC50 is the negative log base 10 of the concentration in molar.

For orientation, consider the following solved cases.
| Compound | Recorded endpoint | Assay value |
| --- | --- | --- |
| Oc1ccc(OC[C@H](O)CN2CCN(c3ccc(F)cc3)CC2)cc1 | pIC50 | 7.06 |
| N#Cc1ccc(N2CCN(C[C@@H](O)COc3ccc(O)cc3)CC2)cc1 | pIC50 | 6.34 |
| Oc1ccc(OCC(O)CN2CCN(c3ccc(Br)cc3)CC2)cc1 (centres unmarked) | pIC50 | 7.14 |
| Oc1ccc(OCC(O)CN2CCN(c3cccc(C(F)(F)F)c3)CC2)cc1 (centres unmarked) | pIC50 | 6.41 |

For record Cc1ccc(N2CCN(CC(O)COc3ccc(O)cc3)CC2)cc1C (centres unmarked) the listed pIC50 is 5.82

---

Target: NMDA receptor (NR1 + NR2 subunits) (Rattus norvegicus, UniProt P35439+Q00960)
Assay: Two electrode voltage clamp recording from Xenopus laevis oocytes (pH dependence of NMDA antagonism)
Type: cell-based
Settings: pH 6.9; Table 18; read-out: IC50 at pH 6.9
Description: cRNA was synthesized from linearized template cDNA for rat glutamate receptor subunits according to manufacturer specifications (Ambion). Quality of synthesized cRNA was assessed by gel electrophoresis, and quantity was estimated by spectroscopy and gel electrophoresis. […] Two electrode voltage-clamp recordings were made 2-7 days post-injection as previously described. […] Oocytes were recorded under voltage clamp at −40 mV. […]
Item-by-item account of pIC50
Hey, just a heads up that pIC50 is the negative log base 10 of the concentration in molar.

For orientation, consider the following solved cases.
| Molecule | pIC50 |
| --- | --- |
| Cc1ccc(N2CCN(C[C@@H](O)COc3ccc4[nH]c(=O)oc4c3)CC2)cc1 | 7.14 |
| O=c1[nH]c2ccc(OCC(O)CN3CCN(c4ccc(Cl)cc4)CC3)cc2o1 (stereo not drawn) | 7.10 |

Kindly review the next molecule as well.
I looked up O=c1[nH]c2ccc(OC[C@H](O)CN3CCN(c4ccc(F)c(F)c4)CC3)cc2o1 and its pIC50 for NMDA receptor (NR1 + NR2 subunits) (Rattus norvegicus, UniProt P35439+Q00960) was 6.84

---

Target: NMDA receptor (NR1 + NR2 subunits) (Rattus norvegicus, UniProt P35439+Q00960)
Test: Two electrode voltage clamp recording from Xenopus laevis oocytes (pH dependence of NMDA antagonism)
Assay type: cell-based
Settings: pH 6.9; Table 21; read-out: IC50 at pH 6.9
Experimental: cRNA was synthesized from linearized template cDNA for rat glutamate receptor subunits according to manufacturer specifications (Ambion). Quality of synthesized cRNA was assessed by gel electrophoresis, and quantity was estimated by spectroscopy and gel electrophoresis. […] Two electrode voltage-clamp recordings were made 2-7 days post-injection as previously described. […] Oocytes were recorded under voltage clamp at −40 mV. […]
Item-by-item account of pIC50
Hey, just a heads up that pIC50 is the negative log base 10 of the concentration in molar.

For record CS(=O)(=O)Nc1ccc(OCC(=O)N2CCN(c3ccc(Cl)c(Cl)c3)CC2)cc1 the listed pIC50 is 7.40

For record CS(=O)(=O)Nc1ccc(CCCN2CCN(c3ccc(Cl)c(Cl)c3)CC2)cc1 the listed pIC50 is 6.64

---

target: NMDA receptor (NR1 + NR2 subunits) (Rattus norvegicus, UniProt P35439+Q00960); experiment: Two electrode voltage clamp recording from Xenopus laevis oocytes (pH dependence of NMDA antagonism); type: cell-based; conditions: pH 7.6; Table 22; read-out: IC50 pH 7.6
Recorded endpoint: pIC50
Hey, just a heads up that pIC50 is the negative log base 10 of the concentration in molar.

For orientation, consider the following solved cases.
| Molecule | Experimental target | Assay value |
| --- | --- | --- |
| O=C1CCc2cc(OC[C@@H](O)CN3CCN(c4ccc(Cl)cc4)CC3)ccc2N1 | NMDA receptor (NR1 + NR2 subunits) (Rattus norvegicus, UniProt P35439+Q00960) | 7.18 |
| O[C@H](COc1ccc2[nH]c(=S)[nH]c2c1)CN1CCN(c2ccc(Cl)cc2)CC1 | NMDA receptor (NR1 + NR2 subunits) (Rattus norvegicus, UniProt P35439+Q00960) | 7.12 |

Kindly review the next molecule as well.
For record NC(=O)Nc1ccc(OC[C@@H](O)CN2CCN(c3ccc(Cl)cc3)CC2)cc1 [drawing 778] the listed pIC50 is 6.34

---

target: NMDA receptor (NR1 + NR2 subunits) (Rattus norvegicus, UniProt P35439+Q00960); experiment: Two electrode voltage clamp recording from Xenopus laevis oocytes (pH dependence of NMDA antagonism); type: cell-based; details: pH 6.9; Table 22; read-out: IC50 pH 6.9
pIC50: −log10 of the molar value.
Rule: pIC50 under 7 gives No, otherwise Yes.

| Molecule | Discrete label |
| --- | --- |
| O[C@H](COc1ccc2[nH]ccc2c1)CN1CCN(c2ccc(Cl)cc2)CC1 | No |
| O=c1[nH]c2ccc(OC[C@@H](O)CN3CCN(c4ccc(Cl)cc4)CC3)cc2o1 [drawing 776] | Yes |
| NC(=O)Nc1ccc(OC[C@@H](O)CN2CCN(c3ccc(Cl)cc3)CC2)cc1 [drawing 778] | Yes |
| CS(=O)(=O)Nc1ccc(OC[C@@H](O)CN2CCN(c3ccc(Cl)cc3)CC2)cc1 | Yes |
| O=C1Cc2cc(OC[C@@H](O)CN3CCN(c4ccc(Cl)cc4)CC3)ccc2N1 | No |

Let us examine a further case.
# check: pIC50 of O=C1CCc2cc(OC[C@@H](O)CN3CCN(c4ccc(Cl)cc4)CC3)ccc2N1 is greater than or equal to 7 Yes

---

molecular target: NMDA receptor (NR1 + NR2 subunits) (Rattus norvegicus, UniProt P35439+Q00960); test: Two electrode voltage clamp recording from Xenopus laevis oocytes (pH dependence of NMDA antagonism); type: cell-based; conditions: pH 7.6; Table 19; read-out: IC50 at pH 7.6
Threshold check on IC50: strictly below 2000 nM is TRUE; on or above 2000 nM is FALSE.

| Compound | Discrete label |
| --- | --- |
| Oc1ccc(OC[C@H](O)CN2CCN(c3ccc(F)cc3)CC2)cc1 | TRUE |
| Oc1ccc(OCC(O)CN2CCN(c3ccccc3)CC2)cc1 (stereo not shown) | TRUE |
| Oc1ccc(OCC(O)CN2CCN(c3ccc(-c4ccccc4)cc3)CC2)cc1 (stereo not shown) | FALSE |
| Oc1ccc(OCC(O)CN2CCN(c3ccc(C(F)(F)F)cc3)CC2)cc1 (stereo not shown) | TRUE |
| Oc1ccc(OCC(O)CN2CCN(c3ccc(F)c(F)c3)CC2)cc1 (stereo not shown) | TRUE |

Is it true that IC50 reported for N#Cc1ccc(N2CCN(C[C@@H](O)COc3ccc(O)cc3)CC2)cc1 is less than 2000 nM? FALSE

Is it true that IC50 reported for Oc1ccc(OCC(O)CN2CCN(c3ccc(O)cc3)CC2)cc1 (stereo not shown) is less than 2000 nM? FALSE

Is it true that IC50 reported for Oc1ccc(OC[C@H](O)CN2CCN(c3ccc(F)c(F)c3)CC2)cc1 is less than 2000 nM? TRUE

Is it true that IC50 reported for Oc1ccc(OC[C@H](O)CN2CCN(c3ccccc3F)CC2)cc1 is less than 2000 nM? TRUE

Is it true that IC50 reported for Oc1ccc(OCC(O)CNCCc2ccc(Cl)c(Cl)c2)cc1F (stereo not shown) is less than 2000 nM? TRUE

Is it true that IC50 reported for Cc1cccc(N2CCN(C[C@@H](O)COc3ccc(O)cc3)CC2)c1 is less than 2000 nM? TRUE

Is it true that IC50 reported for COc1ccc(N2CCN(C[C@@H](O)COc3ccc(O)cc3)CC2)cc1 is less than 2000 nM? FALSE

Cited source: patent US20110160223A1
